Source of measurements: paper PMC10584170

system: HepG2 cells; test: HepG2 cytotoxicity counter-screen; conditions: mean of the HepG2 TOX50 values
quantity-kind: Mean TOX (µM)
Use µM as the unit, but write only the number.

Answered examples (2):
molecule: COc1ccc(Nc2ncc(Cl)c(Nc3cccnc3C(N)=O)n2)cc1N1CCN(C)CC1.Cl [TC75]
target-under-test: HepG2 cells
Mean TOX (µM): 7.10
//
molecule: CN1CCN(c2ccc(Nc3c4ccccc4nc4ccccc34)cc2)CC1 [TC57]
target-under-test: HepG2 cells
Mean TOX (µM): 26.65

For record CN1CCN(CCCNCc2cccc(-c3ccc(CNCCc4ccccc4)cc3)c2)CC1.O=C(O)C(F)(F)F [TCMDC-140643] the listed Mean TOX is 13.07

For record CC(C)(CNC(=O)[C@H]1CCCCN1)c1nc(-c2ccc(Cl)c(O)c2)c(-c2ccncc2)[nH]1.Cl [TC04] the listed Mean TOX is 40.64

For record COc1ccc(-c2cnc(N)c(-c3ccc(C(N)=O)cc3)c2)cc1OC [TC26] the listed Mean TOX is 57.57

For record CN(C)CCCn1c(N)c(-c2nc3ccccc3[nH]2)c2nc(C#N)c(C#N)nc21 [TC72] the listed Mean TOX is 7.53

For record O=C(c1ccc(-c2cnc3[nH]cc(-c4ccc(C(=O)N5CCOCC5)cc4)c3c2)cc1)N1CCOCC1 [TC43] the listed Mean TOX is 28.99

----------
system: P. falciparum male gametocytes; test: P. falciparum Dual Gamete Formation Assay (PfDGFA), male readout (exflagellation); type: cell-based, Plasmodium falciparum NF54; conditions: PfDGFA at 2µM, 24h preincubation with gametocytes prior to induction of gametogenesis; replicate R4
Examples of compounds with documented % inhibition male (individual replicates) R4 follow.
Use % as the unit, but write only the number.

compound: CC(O)C1CCCCN1C(=O)c1ccc(-c2ccc(-c3nc4ccccc4[nH]3)s2)cc1 (stereo not drawn)
recorded-measurement: 19.6
--
compound: COc1ccc2ncc(F)c(CCN3CCC(NCc4cc(F)c5c(c4)OCCO5)CC3)c2n1.Cl
recorded-measurement: -21.8

For record CN(C)Cc1c(O)ccc2[nH]c(-c3cccc(F)c3)nc12 the listed % inhibition male (individual replicates) R4 is 8.9

----------
system: P. falciparum male gametocytes; assay: P. falciparum Dual Gamete Formation Assay (PfDGFA), male readout (exflagellation); assay type: cell-based, Plasmodium falciparum NF54; conditions: 2µM, 24h preincubation with gametocytes prior to induction of gametogenesis; replicate R4
Examples of compounds with documented % inhibition male (individual replicates) R4 follow.
Use % as the unit, but write only the number.

Answered examples (5):
compound: C[C@@H](Oc1cc(-n2cnc3ccc(OCC4CCN(S(C)(=O)=O)CC4)cc32)sc1C(N)=O)c1ccccc1C(F)(F)F
unit-of-measure: %
recorded-measurement: -12.5
--
compound: Cc1cc(F)ccc1-c1nc(NCCCNCCc2ccccc2)nc2c1ccc(=O)n2-c1c(F)cccc1F.O=C(O)C(F)(F)F
unit-of-measure: %
recorded-measurement: 37.6
--
compound: COc1ccc(-c2csc3nc(C)nc(Cl)c23)cc1OC
unit-of-measure: %
recorded-measurement: 6.2
--
compound: c1ccc(Oc2ccc(Nc3ccnc4cc(-c5cccc(CNCCN6CCOCC6)c5)ccc34)cc2)cc1
unit-of-measure: %
recorded-measurement: 25.6
--
compound: O=C(NCCCCN1CCC(c2ccc3c(c2OCCN2CCCC2)CCCC3)CC1)c1ccc(-c2ccc(C(F)(F)F)cc2)cc1
unit-of-measure: %
recorded-measurement: 63.6

Note to self: % inhibition male (individual replicates) R4 of COc1cccc(-c2csc(C(=O)NCC3CCN(Cc4ccc(C(C)(C)C)cc4)C3)c2)c1.O=C(O)C(F)(F)F (stereo not shown) with P. falciparum male gametocytes was 2.2

Note to self: % inhibition male (individual replicates) R4 of COc1cc(CNCCCCCCNCc2cc(OC)cc3ccccc23)c2ccccc2c1.CS(=O)(=O)O with P. falciparum male gametocytes was 38.9

Note to self: % inhibition male (individual replicates) R4 of CN1CCC(NCc2ccc(-c3ccc(S(=O)(=O)NCc4ccccc4)cc3)cc2)CC1.O=C(O)C(F)(F)F with P. falciparum male gametocytes was 43.3

Note to self: % inhibition male (individual replicates) R4 of Clc1ccc(CNCCCCCCNCc2ccc(Cl)cc2)cc1.O=C(O)c1ccc2ccccc2c1O with P. falciparum male gametocytes was 76.2

Note to self: % inhibition male (individual replicates) R4 of CN(C)S(=O)(=O)n1ccc2c3c(N)nc(N)nc3ccc21 with P. falciparum male gametocytes was -51.1

Note to self: % inhibition male (individual replicates) R4 of Nc1ccc2[nH]cc(C3CCN(CCC4CCN(C(=O)/C=C/c5ccc(Cl)c(Cl)c5)CC4)CC3)c2n1 with P. falciparum male gametocytes was 54.9

Note to self: % inhibition male (individual replicates) R4 of CC[C@H]1CN2CCc3cc(OC)c(OC)cc3[C@@H]2C[C@@H]1C[C@H]1NCCc2c1cc(OC)c(O)c2Cl with P. falciparum male gametocytes was 72.9

Note to self: % inhibition male (individual replicates) R4 of COc1cccc(OC)c1CN1CCC(N(C)CCCCCCCCN2CCC(OC(=O)Nc3ccccc3-c3ccccc3)CC2)CC1 with P. falciparum male gametocytes was 71.6
